Listed next: entries and their corresponding log10 of IC50.
# Study Target: Adrenergic receptor alpha-1 (Rattus norvegicus, UniProt P15823+P23944+P43140)
# Test Name: Binding affinity against Alpha-1 adrenergic receptor in rat brain membrane using [3H]prazosin as radioligand
# Format: cell membranes
Reported Metric: log10 of IC50 (log10 of the value in nM)

- Molecule: "COc1ccccc1N1CCN(CCCC2CCCc3c(OC)cccc32)CC1 (stereo unspecified)"
  log10 of IC50: 0.81
- Molecule: "COc1cccc2c1CCCC2C(=O)N(C)CCN1CCN(c2ccccc2)CC1 (stereo unspecified)"
  log10 of IC50: 2.71
- Molecule: "COc1cccc2c1CCCC2C(=O)NCCCN1CCN(c2ccccc2)CC1 (stereo unspecified)"
  log10 of IC50: 1.28
- Molecule: "COc1cccc2c1CCCC2NCCN1CCN(c2ccccc2)CC1 (stereo unspecified)"
  log10 of IC50: 2.90
- Molecule: "COc1cccc2c1CCCC2C(=O)NCCN1CCN(c2ccccc2)CC1 (stereo unspecified)"
  log10 of IC50: 2.63
- Molecule: "COc1ccccc1N1CCN(CCCNC2CCCc3c(OC)cccc32)CC1 (stereo unspecified)"
  log10 of IC50: 2.94

----------
# Study Target: Serotonin 2 (5-HT2) receptor (Rattus norvegicus, UniProt P30994+P08909+P14842)
# Test Name: Binding affinity against 5-hydroxytryptamine 2 receptor in rat brain using [3H]ketanserin as radioligand
# Type: tissue-based
log10 IC50 values for the compounds below.
Reported Metric: log10 IC50 (log10 of the value in µM)

- Compound: "COc1ccccc1N1CCN(CCN(C)C2CCCc3c(OC)cccc32)CC1 (stereo not drawn)"
  Reported Metric: "log10 IC50"
  Numeric Value: 0.24
- Compound: "COc1ccccc1N1CCN(CCCNC2CCCc3c(OC)cccc32)CC1 (stereo not drawn)"
  Reported Metric: "log10 IC50"
  Numeric Value: 0.52
- Compound: "COc1cccc2c1CCCC2C(=O)NCCCN1CCN(c2ccccc2)CC1 (stereo not drawn)"
  Reported Metric: "log10 IC50"
  Numeric Value: -0.46
- Compound: "COc1ccccc1N1CCN(CCN(C)C(=O)C2CCCc3c(OC)cccc32)CC1 (stereo not drawn)"
  Reported Metric: "log10 IC50"
  Numeric Value: 0.03
- Compound: "COc1ccccc1N1CCN(CCNC(=O)C2CCCc3c(OC)cccc32)CC1 (stereo not drawn)"
  Reported Metric: "log10 IC50"
  Numeric Value: 0.23
- Compound: "COc1ccccc1N1CCN(CCC(=O)NC2CCCc3c(OC)cccc32)CC1 (stereo not drawn)"
  Reported Metric: "log10 IC50"
  Numeric Value: -0.08
- Compound: "COc1cccc2c1CCCC2NC(=O)CCN1CCN(c2ccccn2)CC1 (stereo not drawn)"
  Reported Metric: "log10 IC50"
  Numeric Value: -0.14
- Compound: "COc1cccc2c1CCCC2NCCN1CCN(c2ccccc2)CC1 (stereo not drawn)"
  Reported Metric: "log10 IC50"
  Numeric Value: 0.43
- Compound: "COc1cccc2c1CCCC2C(=O)NCCN1CCN(c2ccccn2)CC1 (stereo not drawn)"
  Reported Metric: "log10 IC50"
  Numeric Value: 0.10
- Compound: "COc1ccccc1N1CCN(CCCC2CCCc3c(OC)cccc32)CC1 (stereo not drawn)"
  Reported Metric: "log10 IC50"
  Numeric Value: -0.48
- Compound: "COc1cccc2c1CCCC2CCCN1CCN(c2ccccn2)CC1 (stereo not drawn)"
  Reported Metric: "log10 IC50"
  Numeric Value: -0.60
- Compound: "COc1cccc2c1CCCC2NCCN1CCN(c2ccccn2)CC1 (stereo not drawn)"
  Reported Metric: "log10 IC50"
  Numeric Value: 0.96
- Compound: "COc1ccccc1N1CCN(CCCNC(=O)C2CCCc3c(OC)cccc32)CC1 (stereo not drawn)"
  Reported Metric: "log10 IC50"
  Numeric Value: 0.31

----------
# Study Target: D(2) dopamine receptor (Rattus norvegicus)
# Sequence (P61169 whole entry): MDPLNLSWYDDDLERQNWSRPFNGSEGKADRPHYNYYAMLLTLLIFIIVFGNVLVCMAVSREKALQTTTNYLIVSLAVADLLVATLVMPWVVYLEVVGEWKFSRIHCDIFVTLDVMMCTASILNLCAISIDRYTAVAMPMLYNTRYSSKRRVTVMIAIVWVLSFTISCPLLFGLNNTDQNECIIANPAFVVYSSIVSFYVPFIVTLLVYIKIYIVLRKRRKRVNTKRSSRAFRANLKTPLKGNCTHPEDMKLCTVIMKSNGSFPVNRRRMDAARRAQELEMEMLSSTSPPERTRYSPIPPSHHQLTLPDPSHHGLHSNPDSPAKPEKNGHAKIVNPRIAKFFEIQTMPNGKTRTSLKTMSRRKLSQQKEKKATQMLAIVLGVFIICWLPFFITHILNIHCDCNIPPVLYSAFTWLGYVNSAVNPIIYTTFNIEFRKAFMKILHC
# Test Name: Binding affinity against Dopamine receptor D2 in rat striatal membrane using [3H]spiroperidol as radioligand
# Format: cell membranes, Striatum
Reported Metric: log10 IC50 (log10 of the value in nM)

- Compound: "COc1ccccc1N1CCN(CCCNC(=O)C2CCCc3c(OC)cccc32)CC1 (stereo unspecified)"
  log10 IC50: 2.06
- Compound: "COc1cccc2c1CCCC2C(=O)NCCCN1CCN(c2ccccn2)CC1 (stereo unspecified)"
  log10 IC50: 2.91
- Compound: "COc1cccc2c1CCCC2C(=O)NCCN1CCN(c2ccccn2)CC1 (stereo unspecified)"
  log10 IC50: 3.39
- Compound: "COc1cccc2c1CCCC2C(=O)N(C)CCN1CCN(c2ccccc2)CC1 (stereo unspecified)"
  log10 IC50: 2.95
- Compound: "COc1ccccc1N1CCN(CCNC(=O)C2CCCc3c(OC)cccc32)CC1 (stereo unspecified)"
  log10 IC50: 2.65

----------
# Study Target: Adrenergic receptor alpha-2 (Rattus norvegicus, UniProt P22086+P19328+P22909)
# Test Name: Binding affinity against Alpha-2 adrenergic receptor in rat brain membrane using [3H]yohimbine as radioligand
# Assay type: cell membranes
Lab note: cut-off is 0.6 µM. Strictly less in IC50 is True. Exactly 0.6 µM or more is False.

- Compound: "COc1cccc2c1CCCC2C(=O)N(C)CCCN1CCN(c2ccccc2)CC1 (centres undefined)"
  Study Target: "Adrenergic receptor alpha-2 (Rattus norvegicus, UniProt P22086+P19328+P22909)"
  Group Label: "True"
- Compound: "COc1ccccc1N1CCN(CCCNC2CCCc3c(OC)cccc32)CC1 (centres undefined)"
  Study Target: "Adrenergic receptor alpha-2 (Rattus norvegicus, UniProt P22086+P19328+P22909)"
  Group Label: "True"
- Compound: "COc1cccc2c1CCCC2NC(=O)CN1CCN(c2ccccc2)CC1 (centres undefined)"
  Study Target: "Adrenergic receptor alpha-2 (Rattus norvegicus, UniProt P22086+P19328+P22909)"
  Group Label: "False"
- Compound: "COc1cccc2c1CCCC2NC(=O)CCN1CCN(c2ccccc2)CC1 (centres undefined)"
  Study Target: "Adrenergic receptor alpha-2 (Rattus norvegicus, UniProt P22086+P19328+P22909)"
  Group Label: "False"
- Compound: "COc1ccccc1N1CCN(CCNC(=O)C2CCCc3c(OC)cccc32)CC1 (centres undefined)"
  Study Target: "Adrenergic receptor alpha-2 (Rattus norvegicus, UniProt P22086+P19328+P22909)"
  Group Label: "False"
- Compound: "COc1cccc2c1CCCC2C(=O)NCCCN1CCN(c2ccccn2)CC1 (centres undefined)"
  Study Target: "Adrenergic receptor alpha-2 (Rattus norvegicus, UniProt P22086+P19328+P22909)"
  Group Label: "False"
- Compound: "COc1cccc2c1CCCC2CCCN1CCN(c2ccccn2)CC1 (centres undefined)"
  Study Target: "Adrenergic receptor alpha-2 (Rattus norvegicus, UniProt P22086+P19328+P22909)"
  Group Label: "True"
- Compound: "COc1ccccc1N1CCN(CCN(C)C2CCCc3c(OC)cccc32)CC1 (centres undefined)"
  Study Target: "Adrenergic receptor alpha-2 (Rattus norvegicus, UniProt P22086+P19328+P22909)"
  Group Label: "True"
- Compound: "COc1ccccc1N1CCN(CCCC2CCCc3c(OC)cccc32)CC1 (centres undefined)"
  Study Target: "Adrenergic receptor alpha-2 (Rattus norvegicus, UniProt P22086+P19328+P22909)"
  Group Label: "True"
- Compound: "COc1cccc2c1CCCC2C(=O)NCCCN1CCN(c2ccccc2)CC1 (centres undefined)"
  Study Target: "Adrenergic receptor alpha-2 (Rattus norvegicus, UniProt P22086+P19328+P22909)"
  Group Label: "True"
- Compound: "COc1cccc2c1CCCC2CCCN1CCN(c2ccccc2)CC1 (centres undefined)"
  Study Target: "Adrenergic receptor alpha-2 (Rattus norvegicus, UniProt P22086+P19328+P22909)"
  Group Label: "True"
- Compound: "COc1ccccc1N1CCN(CCNC2CCCc3c(OC)cccc32)CC1 (centres undefined)"
  Study Target: "Adrenergic receptor alpha-2 (Rattus norvegicus, UniProt P22086+P19328+P22909)"
  Group Label: "True"
- Compound: "COc1cccc2c1CCCC2C(=O)N(C)CCN1CCN(c2ccccc2)CC1 (centres undefined)"
  Study Target: "Adrenergic receptor alpha-2 (Rattus norvegicus, UniProt P22086+P19328+P22909)"
  Group Label: "True"
- Compound: "COc1cccc2c1CCCC2C(=O)NCCN1CCN(c2ccccn2)CC1 (centres undefined)"
  Study Target: "Adrenergic receptor alpha-2 (Rattus norvegicus, UniProt P22086+P19328+P22909)"
  Group Label: "False"
- Compound: "COc1ccccc1N1CCN(CCC(=O)NC2CCCc3c(OC)cccc32)CC1 (centres undefined)"
  Study Target: "Adrenergic receptor alpha-2 (Rattus norvegicus, UniProt P22086+P19328+P22909)"
  Group Label: "False"
- Compound: "COc1cccc2c1CCCC2NC(=O)CCN1CCN(c2ccccn2)CC1 (centres undefined)"
  Study Target: "Adrenergic receptor alpha-2 (Rattus norvegicus, UniProt P22086+P19328+P22909)"
  Group Label: "False"
- Compound: "COc1cccc2c1CCCC2NCCN1CCN(c2ccccn2)CC1 (centres undefined)"
  Study Target: "Adrenergic receptor alpha-2 (Rattus norvegicus, UniProt P22086+P19328+P22909)"
  Group Label: "True"
- Compound: "COc1cccc2c1CCCC2CNCCN1CCN(c2ccccc2)CC1 (centres undefined)"
  Study Target: "Adrenergic receptor alpha-2 (Rattus norvegicus, UniProt P22086+P19328+P22909)"
  Group Label: "False"
- Compound: "COc1ccccc1N1CCN(CCCNC(=O)C2CCCc3c(OC)cccc32)CC1 (centres undefined)"
  Study Target: "Adrenergic receptor alpha-2 (Rattus norvegicus, UniProt P22086+P19328+P22909)"
  Group Label: "True"
- Compound: "COc1cccc2c1CCCC2NCCN1CCN(c2ccccc2)CC1 (centres undefined)"
  Study Target: "Adrenergic receptor alpha-2 (Rattus norvegicus, UniProt P22086+P19328+P22909)"
  Group Label: "True"
- Compound: "CCCN(CCC)C1CCc2cccc(O)c2C1 (centres undefined) [8-OH-DPAT]"
  Study Target: "Adrenergic receptor alpha-2 (Rattus norvegicus, UniProt P22086+P19328+P22909)"
  Group Label: "False"
- Compound: "COc1cccc2c1CCCC2NCCCN1CCN(c2ccccc2)CC1 (centres undefined)"
  Study Target: "Adrenergic receptor alpha-2 (Rattus norvegicus, UniProt P22086+P19328+P22909)"
  Group Label: "False"
- Compound: "COc1cccc2c1CCCC2C(=O)NCCN1CCN(c2ccccc2)CC1 (centres undefined)"
  Study Target: "Adrenergic receptor alpha-2 (Rattus norvegicus, UniProt P22086+P19328+P22909)"
  Group Label: "False"
- Compound: "COc1ccccc1N1CCN(CCN(C)C(=O)C2CCCc3c(OC)cccc32)CC1 (centres undefined)"
  Study Target: "Adrenergic receptor alpha-2 (Rattus norvegicus, UniProt P22086+P19328+P22909)"
  Group Label: "True"
